Origin of the recorded values: paper PMC10060354

- EXPERIMENT_SUMMARY: In vivo bioavailability / PK after 1 mg/kg IV or 10 mg/kg PO
- Set-up: species or system Male ICR mice
- MEASUREMENT_SETUP: male, ICR, mouse, plasma; 1 mg/kg, IV; read-out: Vss
READOUT_NAME: Vd (L/kg)
Return type: number; implicit unit L/kg.

// below: answered compounds
- COMPOUND: "Cc1[nH]nc(-c2ccc(O)c(C)c2O)c1-c1nc2ccccc2s1"
  UNITS: "L/kg"
  Vd: 1.3
- COMPOUND: "CC(C)C[C@@H](CO)NCc1cc(O)c2cc(F)ccc2n1"
  UNITS: "L/kg"
  Vd: 1.3

Continue with the compound presented below.
Documented Vd of O=[N+]([O-])c1c(Cl)cc(O)c2c1C1C=CCC1C(c1ccc(Cl)cc1)N2 (stereo not drawn) : 0.7
